The reported measurements were obtained from ChEMBL document CHEMBL4818996.

System: HCT-116
Assay: Antiproliferative activity against human HCT-116 cells assessed as inhibition of cell proliferation measured after 72 hrs by real time imaging analysis
Format: functional, cell-based
Conditions: HCT-116, 72 h
Measurement Kind: IC50 (µM)
Number in µM, nothing else.

Worked cases, answers included:
>>> quantitative_readout("N#C/C(=C\\c1c[nH]c2ccccc12)c1nc2ccccc2n1-c1ccccc1")
7.1
>>> quantitative_readout("CN(C)c1ccc(/C=C(\\C#N)c2nc3ccc(C#N)cc3n2-c2ccccc2)cc1")
26.8
>>> quantitative_readout("CC(C)Cn1c(C(C#N)=Cc2ccc(N(C)C)cc2)nc2ccccc21")
0.6
>>> quantitative_readout("CN[C@@H]1C[C@H]2O[C@@](C)([C@@H]1OC)n1c3ccccc3c3c4c(c5c6ccccc6n2c5c31)C(=O)NC4")
0.0281
>>> quantitative_readout("Cn1c(/C(C#N)=C/c2c[nH]c3ccccc23)nc2ccccc21")
29

[ask] Annotate the molecule CC(=O)O[C@@]12CO[C@@H]1C[C@H](O)[C@@]1(C)C(=O)[C@H](O)C3=C(C)[C@@H](OC(=O)[C@H](O)[C@@H](NC(=O)OC(C)(C)C)c4ccccc4)C[C@@](O)([C@@H](OC(=O)c4ccccc4)[C@H]21)C3(C)C [DOCETAXEL ANHYDROUS] with its measured IC50.
[reply] 0.0017

[ask] Identify measured IC50 corresponding to Cn1c(/C(C#N)=C/c2ccc(Br)cc2)nc2ccccc21
[reply] 52.2

[ask] Please supply the value of reported IC50 for the item N#C/C(=C\c1cccnc1)c1nc2ccccc2n1-c1ccccc1
[reply] 50.6

---

System: HCT-116
Assay: Antiproliferative activity against human HCT-116 cells assessed as inhibition of cell proliferation measured after 72 hrs by real time imaging analysis
Assay type: functional, cell-based
Conditions: HCT-116, 72 h
# key: entry, value: IC50
State just the number; it will be interpreted in µM.

>>> quantitative_readout("N#C/C(=C\\c1ccc[nH]1)c1nc2ccccc2n1-c1ccccc1")
49.4
>>> quantitative_readout("CC(C)Cn1c(/C(C#N)=C/c2ccccc2)nc2ccccc21")
42.4

// switching to the query compound
[ask] Tell me its IC50 given CC(C)Cn1c(C(C#N)=Cc2ccc(N(C)C)cc2)nc2ccc(C#N)cc21 as the entry.
[reply] 0.4

---

System: HCT-116
Experiment: Antiproliferative activity against human HCT-116 cells assessed as inhibition of cell proliferation measured after 72 hrs by real time imaging analysis
Type: functional, cell-based
Conditions: HCT-116, 72 h
IC50 strictly under 50 µM means TRUE; at 50 µM or over means FALSE.

Study these solved cases before continuing.
>>> answer_label("Cn1c(/C(C#N)=C/c2cnc3ccccc3c2)nc2ccccc21")
"FALSE"
>>> answer_label("Cn1c(/C(C#N)=C/c2cccnc2)nc2ccccc21")
"FALSE"
>>> answer_label("N#C/C(=C\\c1ccc(Br)cc1)c1nc2ccccc2n1-c1ccccc1")
"TRUE"
>>> answer_label("N#C/C(=C\\c1cnc2ccccc2c1)c1nc2ccccc2n1-c1ccccc1")
"TRUE"

[ask] Please check: IC50 for CN(C)c1ccc(/C=C(\C#N)c2nc3ccc(C#N)cc3n2C)cc1 , strictly under 50 µM or not?
[reply] FALSE

---

pIC50 values for the compounds below.
System: NCI-H460
Assay: Antiproliferative activity against human NCI-H460 cells assessed as inhibition of cell proliferation measured after 72 hrs by real time imaging analysis
Type: functional, cell-based
Details: NCI-H460, 72 h
Keep in mind that pIC50 stands for -log10 of concentration in molar terms.

[ask] Give me measured pIC50, please, for this compound: Cn1c(/C(C#N)=C/c2cnc3ccccc3c2)nc2ccccc21
[reply] 4.65

[ask] Give a short answer stating reported pIC50 for Cn1c(/C(C#N)=C/c2c[nH]c3ccccc23)nc2ccccc21 .
[reply] 4.92

[ask] Supply pIC50 value. Item: CN(C)c1ccc(/C=C(\C#N)c2nc3ccc(C#N)cc3n2-c2ccccc2)cc1
[reply] 4.34

[ask] Fill in pIC50 for record CC(C)Cn1c(C(C#N)=Cc2ccc(N(C)C)cc2)nc2ccccc21
[reply] 6.40

[ask] Identify measured pIC50 associated with Cn1c(/C(C#N)=C/c2ccc[nH]2)nc2ccccc21
[reply] 4.17

[ask] Give pIC50 for N#C/C(=C\c1cnc2ccccc2c1)c1nc2ccccc2n1-c1ccccc1
[reply] 4.87

[ask] Provide one value: measured pIC50 of CC(C)Cn1c(C(C#N)=Cc2ccc([N+](=O)[O-])cc2)nc2ccccc21
[reply] 4.83

[ask] Look up and state reported pIC50 for CC(=O)O[C@@]12CO[C@@H]1C[C@H](O)[C@@]1(C)C(=O)[C@H](O)C3=C(C)[C@@H](OC(=O)[C@H](O)[C@@H](NC(=O)OC(C)(C)C)c4ccccc4)C[C@@](O)([C@@H](OC(=O)c4ccccc4)[C@H]21)C3(C)C [DOCETAXEL ANHYDROUS]
[reply] 8.62

---

Tested on: MM1.S
Assay: cells
Type: functional, cell-based
Conditions: Homo sapiens, 72 h
Description: Antiproliferative activity against human MM1.S cells assessed as inhibition of cell proliferation measured after 72 hrs by real time imaging analysis
Listing of recorded pIC50 by entry.
// scale note: pIC50 = -log10(conc_M); give the bare number

Worked cases, answers included:
>>> quantitative_readout("N#C/C(=C\\c1c[nH]c2ccccc12)c1nc2ccccc2n1-c1ccccc1")
4.61
>>> quantitative_readout("CC(C)Cn1c(/C(C#N)=C/c2ccccc2)nc2ccccc21")
4.18
>>> quantitative_readout("Cn1c(/C(C#N)=C/c2c[nH]c3ccccc23)nc2ccccc21")
4.15
>>> quantitative_readout("CC(=O)O[C@@]12CO[C@@H]1C[C@H](O)[C@@]1(C)C(=O)[C@H](O)C3=C(C)[C@@H](OC(=O)[C@H](O)[C@@H](NC(=O)OC(C)(C)C)c4ccccc4)C[C@@](O)([C@@H](OC(=O)c4ccccc4)[C@H]21)C3(C)C [DOCETAXEL ANHYDROUS]")
7.93
>>> quantitative_readout("N#C/C(=C\\c1cccnc1)c1nc2ccccc2n1-c1ccccc1")
4.23

[ask] Please list pIC50 recorded for the molecule CC(C)Cn1c(C(C#N)=Cc2ccc([N+](=O)[O-])cc2)nc2ccccc21
[reply] 4.14

[ask] Answer with reported pIC50 of N#C/C(=C\c1ccc(Br)cc1)c1nc2ccccc2n1-c1ccccc1
[reply] 4.45

[ask] Return value of pIC50 for input CC(C)Cn1c(C(C#N)=Cc2ccc(N(C)C)cc2)nc2ccccc21 , no commentary.
[reply] 5.82

[ask] State its pIC50: Cn1c(/C(C#N)=C/c2ccc(Br)cc2)nc2ccccc21
[reply] 4.02

[ask] Please report pIC50 for the following molecule: CC(C)Cn1c(C(C#N)=Cc2ccc(N(C)C)cc2)nc2ccc(C#N)cc21
[reply] 5.89

[ask] Give recorded pIC50. N#C/C(=C\c1cnc2ccccc2c1)c1nc2ccccc2n1-c1ccccc1
[reply] 4.20

---

Assay: Antiproliferative activity against human DND41 cells assessed as inhibition of cell proliferation measured after 72 hrs by real time imaging analysis
Assay type: functional, cell-based
Conditions: DND41, 72 h
Measurement Kind: IC50

>>> result("N#C/C(=C\\c1cnc2ccccc2c1)c1nc2ccccc2n1-c1ccccc1")
"14.1 µM"
>>> result("CC(C)Cn1c(/C(C#N)=C/c2ccccc2)nc2ccccc21")
"60 µM"
>>> result("Cn1c(/C(C#N)=C/c2cnc3ccccc3c2)nc2ccccc21")
"49.9 µM"
>>> result("Cn1c(/C(C#N)=C/c2ccc[nH]2)nc2ccccc21")
"73.7 µM"
>>> result("CC(C)Cn1c(C(C#N)=Cc2ccc([N+](=O)[O-])cc2)nc2ccccc21")
"54.6 µM"

[ask] Indicate its recorded IC50; the compound in question is CN(C)c1ccc(/C=C(\C#N)c2nc3ccc(C#N)cc3n2C)cc1
[reply] > 100 µM

[ask] Report IC50, nothing else, for this compound: N#C/C(=C\c1c[nH]c2ccccc12)c1nc2ccccc2n1-c1ccccc1
[reply] 10.1 µM

[ask] State its IC50 for this compound: N#C/C(=C\c1cccnc1)c1nc2ccccc2n1-c1ccccc1
[reply] 60.5 µM

[ask] For the compound Cn1c(/C(C#N)=C/c2c[nH]c3ccccc23)nc2ccccc21 , report IC50.
[reply] 14.9 µM

[ask] Look up IC50 of Cn1c(/C(C#N)=C/c2ccc(Br)cc2)nc2ccccc21 and report it.
[reply] 41.3 µM

---

Test system: NCI-H460
Experiment: Antiproliferative activity against human NCI-H460 cells assessed as inhibition of cell proliferation measured after 72 hrs by real time imaging analysis
Format: functional, cell-based
Conditions: NCI-H460, 72 h
The label is true (1) for IC50 below 10 µM and false (0) for IC50 equal to or exceeding 10 µM.

>>> answer_label("Cn1c(/C(C#N)=C/c2cccnc2)nc2ccccc21")
"false (0)"
>>> answer_label("Cn1c(/C(C#N)=C/c2ccc(Br)cc2)nc2ccccc21")
"false (0)"
>>> answer_label("N#C/C(=C\\c1ccc(Br)cc1)c1nc2ccccc2n1-c1ccccc1")
"false (0)"

[ask] # strict comparison: is reported IC50 < 10 µM? input = CC(C)Cn1c(/C(C#N)=C/c2ccccc2)nc2ccccc21
[reply] false (0)

[ask] In plain terms, does N#C/C(=C\c1c[nH]c2ccccc12)c1nc2ccccc2n1-c1ccccc1 come in under 10 µM for IC50?
[reply] true (1)

[ask] Decide: IC50 of CC(C)Cn1c(C(C#N)=Cc2ccc(N(C)C)cc2)nc2ccc(C#N)cc21 strictly below 10 µM?
[reply] true (1)

[ask] Is it true that IC50 reported for N#C/C(=C\c1cccnc1)c1nc2ccccc2n1-c1ccccc1 is less than 10 µM?
[reply] false (0)

[ask] I wonder whether N#C/C(=C\c1ccc[nH]1)c1nc2ccccc2n1-c1ccccc1 has IC50 below 10 µM. Can you tell?
[reply] false (0)
